molecular target: P-gp (ABCB1) (Homo sapiens, UniProt P08183); experiment: Substrate activity at P-gp (unknown origin) transfected in LLC-PK1 cells expressing human MDR1 gene assessed as efflux ratio of permeability across basolateral to apical membrane at 0.1 uM; format: ADME, cell-based
Sequence (P08183 whole entry): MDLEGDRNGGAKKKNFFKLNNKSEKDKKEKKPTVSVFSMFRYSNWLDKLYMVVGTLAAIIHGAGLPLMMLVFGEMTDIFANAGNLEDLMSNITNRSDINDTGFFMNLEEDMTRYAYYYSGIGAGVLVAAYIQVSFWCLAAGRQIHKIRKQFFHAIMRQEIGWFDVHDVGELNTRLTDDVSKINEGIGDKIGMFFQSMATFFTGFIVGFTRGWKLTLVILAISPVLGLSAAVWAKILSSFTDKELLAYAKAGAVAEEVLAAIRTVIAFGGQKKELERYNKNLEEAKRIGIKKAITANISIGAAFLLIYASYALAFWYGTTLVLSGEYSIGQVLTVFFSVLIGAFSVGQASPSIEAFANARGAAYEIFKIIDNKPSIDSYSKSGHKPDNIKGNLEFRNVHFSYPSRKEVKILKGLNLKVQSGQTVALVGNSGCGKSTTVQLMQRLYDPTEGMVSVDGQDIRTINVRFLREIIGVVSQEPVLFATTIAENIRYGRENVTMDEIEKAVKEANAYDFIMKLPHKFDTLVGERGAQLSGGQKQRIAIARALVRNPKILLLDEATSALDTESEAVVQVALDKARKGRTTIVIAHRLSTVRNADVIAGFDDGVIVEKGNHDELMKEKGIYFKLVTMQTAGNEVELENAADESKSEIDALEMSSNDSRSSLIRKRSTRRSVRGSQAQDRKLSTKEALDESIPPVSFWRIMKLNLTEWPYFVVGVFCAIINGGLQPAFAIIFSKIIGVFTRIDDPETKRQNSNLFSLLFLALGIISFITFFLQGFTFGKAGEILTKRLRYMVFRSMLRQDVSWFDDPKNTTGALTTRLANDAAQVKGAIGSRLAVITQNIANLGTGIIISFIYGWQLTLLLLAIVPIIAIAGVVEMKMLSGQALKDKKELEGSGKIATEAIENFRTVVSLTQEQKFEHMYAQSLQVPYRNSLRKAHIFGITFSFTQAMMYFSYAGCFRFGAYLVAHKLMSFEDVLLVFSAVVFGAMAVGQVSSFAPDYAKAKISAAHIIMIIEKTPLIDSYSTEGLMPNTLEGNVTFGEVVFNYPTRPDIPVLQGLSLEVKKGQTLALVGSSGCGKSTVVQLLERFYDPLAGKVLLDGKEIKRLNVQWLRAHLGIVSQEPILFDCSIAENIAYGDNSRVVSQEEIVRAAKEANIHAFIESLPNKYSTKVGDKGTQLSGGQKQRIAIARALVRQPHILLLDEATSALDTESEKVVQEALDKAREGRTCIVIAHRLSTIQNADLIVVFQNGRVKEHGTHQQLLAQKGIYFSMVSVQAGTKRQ
parameter: efflux ratio at 0.1 µM

# molecule, parameter, assay-value
data = [
    ("CC(C)O[C@H]1CC[C@H](C(=O)N2Cc3nccnc3Nc3ccc(C4CCOCC4)cc32)CC1", "efflux ratio at 0.1 µM", 1.4),
    ("Cc1cnc2c(c1)CN(C(=O)[C@H]1CC[C@H](OC(C)C)CC1)c1cc(N3CC4CCC3CO4)ccc1N2 (stereo not given in full)", "efflux ratio at 0.1 µM", 2.2),
    ("O=C(C1CCc2ccccc2CC1)N1Cc2cccnc2Nc2ccc(N3CCOCC3)cc21", "efflux ratio at 0.1 µM", 1.7),
    ("O=C(C1CCN(CC(F)(F)F)CC1)N1Cc2cc(F)cnc2Nc2ccc(N3C[C@@H]4C[C@H]3CO4)cc21", "efflux ratio at 0.1 µM", 2.2),
    ("CC(C)O[C@H]1CC[C@H](C(=O)N2Cc3cccnc3Nc3ccc(N4CC5CCC4CO5)c(F)c32)CC1 (stereo not given in full)", "efflux ratio at 0.1 µM", 3.1),
]

###

# Lookup of reported IC50 keyed by entry
molecular target: Isocitrate dehydrogenase [NADP] cytoplasmic (Homo sapiens, UniProt O75874, R132H); assay: Inhibition of IDH1 R132H mutant (unknown origin) assessed as reduction in NADPH consumption using alpha-KG as substrate incubated for 60 mins by Kinase-GLO reagent based assay
Sequence (O75874 2-414 R132H limits assumed): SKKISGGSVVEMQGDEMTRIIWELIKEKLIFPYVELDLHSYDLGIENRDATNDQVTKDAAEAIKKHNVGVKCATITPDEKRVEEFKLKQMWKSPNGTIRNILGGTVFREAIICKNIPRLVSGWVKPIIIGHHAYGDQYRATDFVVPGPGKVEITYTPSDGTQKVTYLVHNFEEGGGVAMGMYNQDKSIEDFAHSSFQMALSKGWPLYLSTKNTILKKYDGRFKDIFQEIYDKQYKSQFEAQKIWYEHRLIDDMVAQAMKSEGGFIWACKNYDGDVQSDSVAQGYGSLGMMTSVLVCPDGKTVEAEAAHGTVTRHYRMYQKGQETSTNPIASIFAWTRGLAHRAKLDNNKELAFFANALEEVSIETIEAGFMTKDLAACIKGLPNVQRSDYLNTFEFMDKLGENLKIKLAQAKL

# compound, IC50, nM
measured = [
    ("CC(C)O[C@H]1CC[C@H](C(=O)N2Cc3cccnc3Nc3cnc(N4C[C@@H]5C[C@H]4CO5)cc32)CC1", 116),
    ("CC(C)O[C@H]1CC[C@H](C(=O)N2Cc3cncnc3Nc3ccc(N4C[C@@H]5C[C@H]4CO5)cc32)CC1", 197),
    ("COC1C[C@H]2CC[C@@H](C1)N2c1ccc2c(c1)N(C(=O)C1CCN(CC(F)(F)F)CC1)Cc1cccnc1N2 (stereo partly drawn)", 15.6),
]

###

# Lookup of reported log10 of IC50 keyed by entry
target: Isocitrate dehydrogenase [NADP] cytoplasmic (Homo sapiens, UniProt O75874, R132H); test: Inhibition of IDH1 R132H mutant (unknown origin) assessed as reduction in NADPH consumption using alpha-KG as substrate incubated for 60 mins by Kinase-GLO reagent based assay
parameter: log10 of IC50 (log10 of the value in nM)

# compound, study-target, assay-value
data = [
    ("CC(C)O[C@H]1CC[C@H](C(=O)N2Cc3cc(F)cnc3Nc3ccc(N4C[C@H]5CC[C@@H]4CO5)cc32)OC1", "Isocitrate dehydrogenase [NADP] cytoplasmic (Homo sapiens, UniProt O75874, R132H)", 1.04),
    ("CC(C)O[C@H]1CC[C@H](C(=O)N2Cc3nccnc3Nc3ccc(C4CCOCC4)cc32)CC1", "Isocitrate dehydrogenase [NADP] cytoplasmic (Homo sapiens, UniProt O75874, R132H)", 1.35),
    ("CC(C)O[C@H]1CC[C@H](C(=O)N2Cc3cc(S(C)(=O)=O)cnc3Nc3ccc(N4CC5CCC4CO5)cc32)CC1 (some centres not stated)", "Isocitrate dehydrogenase [NADP] cytoplasmic (Homo sapiens, UniProt O75874, R132H)", 4.05),
    ("Cc1cnc2c(c1)CN(C(=O)[C@H]1CC[C@H](OC(C)C)CC1)c1cc(N3CC4CCC3CO4)ccc1N2 (some centres not stated)", "Isocitrate dehydrogenase [NADP] cytoplasmic (Homo sapiens, UniProt O75874, R132H)", 2.05),
    ("CC(C)O[C@H]1CC[C@H](C(=O)N2Cc3cccnc3Nc3cnc(C4COCCO4)cc32)CC1 (some centres not stated)", "Isocitrate dehydrogenase [NADP] cytoplasmic (Homo sapiens, UniProt O75874, R132H)", 2.26),
    ("CC(C)O[C@H]1CC[C@H](C(=O)N2Cc3cc(F)cnc3Nc3ccc(C4COCCO4)cc32)OC1 (some centres not stated)", "Isocitrate dehydrogenase [NADP] cytoplasmic (Homo sapiens, UniProt O75874, R132H)", 1.39),
    ("CC(C)O[C@H]1CC[C@H](C(=O)N2Cc3cc(Cl)cnc3Nc3ccc(N4CC5CCC4CO5)cc32)CC1 (some centres not stated)", "Isocitrate dehydrogenase [NADP] cytoplasmic (Homo sapiens, UniProt O75874, R132H)", 1.46),
    ("CC(C)O[C@H]1CC[C@H](C(=O)N2c3cc(N4C[C@@H]5C[C@H]4CO5)ccc3Nc3ncccc3C2C)CC1 (some centres not stated)", "Isocitrate dehydrogenase [NADP] cytoplasmic (Homo sapiens, UniProt O75874, R132H)", 1.40),
    ("CC(C)O[C@H]1CC[C@H](C(=O)N2Cc3cccnc3Nc3ccc(N4CCOCC4)cc32)CC1", "Isocitrate dehydrogenase [NADP] cytoplasmic (Homo sapiens, UniProt O75874, R132H)", 1.54),
    ("O=C(C1CCN(CC(F)(F)F)CC1)N1Cc2cc(F)cnc2Nc2ccc(N3C[C@@H]4C[C@H]3CO4)cc21", "Isocitrate dehydrogenase [NADP] cytoplasmic (Homo sapiens, UniProt O75874, R132H)", 0.94),
    ("CC(C)O[C@H]1CC[C@H](C(=O)N2Cc3cccnc3Nc3cc(F)c(C4COCCO4)cc32)OC1 (some centres not stated)", "Isocitrate dehydrogenase [NADP] cytoplasmic (Homo sapiens, UniProt O75874, R132H)", 1.51),
    ("CC(C)O[C@H]1CC[C@H](C(=O)N2Cc3cc(F)cnc3Nc3ccc(-c4cnn(C)c4)cc32)OC1", "Isocitrate dehydrogenase [NADP] cytoplasmic (Homo sapiens, UniProt O75874, R132H)", 0.69),
    ("CC(C)O[C@H]1CC[C@H](C(=O)N2Cc3cc(F)cnc3Nc3ccc(N4CC5CCC4CO5)cc32)CC1 (some centres not stated)", "Isocitrate dehydrogenase [NADP] cytoplasmic (Homo sapiens, UniProt O75874, R132H)", 1.33),
    ("CC(C)O[C@H]1CC[C@H](C(=O)N2Cc3cccnc3Nc3ccc(N4C[C@H]5CC[C@@H]4CO5)cc32)OC1", "Isocitrate dehydrogenase [NADP] cytoplasmic (Homo sapiens, UniProt O75874, R132H)", 1.33),
    ("CC(C)O[C@H]1CC[C@H](C(=O)N2Cc3cccnc3Nc3cnn(CC4CCOCC4)c32)CC1", "Isocitrate dehydrogenase [NADP] cytoplasmic (Homo sapiens, UniProt O75874, R132H)", 3.14),
    ("CC(C)O[C@H]1CC[C@H](C(=O)N2Cc3cccnc3Nc3ccc(N4CC5CCC4CO5)cc32)CC1 (some centres not stated)", "Isocitrate dehydrogenase [NADP] cytoplasmic (Homo sapiens, UniProt O75874, R132H)", 1.04),
]
